The reader will find reported Population Membrane Permeable-Phenotype (%) values listed item by item below.
System: Fibroblast
Assay: Multiplex assay against human fibroblast
Assay type: toxicity, cell-based
Details: 12 h, 1 µM, compound concentration 1 uM, replicate 2
Please reply with the bare figure in % and do not write the unit itself.

Data request: Please look up its Population Membrane Permeable-Phenotype (%): CN(C)C(=O)C(CCN1CCC(O)(c2ccc(Cl)cc2)CC1)(c1ccccc1)c1ccccc1.Cl [LOPERAMIDE HYDROCHLORIDE]
Data returned: 11

====

As shown below, each of these compounds has a reported Growth Rate value.
System: U2OS
Assay: Incucyte cell viability with U2OS; note: filed as whole numbers so only -1 and 0 and 1 occur
Assay type: toxicity, cell-based
Settings: human, 6 h, 10 µM, compound concentration 10 uM, replicate number 1, timepoint 6 hours
Number only, please.

compound | Growth Rate
CCN1CCN(c2ccc(Nc3cc(N(C)C(=O)Nc4c(Cl)c(OC)cc(OC)c4Cl)ncn3)cc2)CC1 | 1

Data request: Fill blank: measured Growth Rate of the compound NC(=O)c1cccc(-c2cc(Nc3ccc(OC(F)(F)F)cc3)ncn2)c1 is ____.
Data returned: 1

Data request: Item CC(C)C[C@H](CO)Nc1nc(S[C@@H](C)c2ccccc2)nc2nc(N)sc12 has what recorded Growth Rate?
Data returned: 0

Data request: Value lookup for Growth Rate; key = CN(C)[C@H]1CCN(c2cc(-c3ccccc3)nc3ccnn23)C1 [(S)-ZINC-3573]
Data returned: 0

Data request: What value of Growth Rate has been reported for the following compound? CC[C@H](CO)Nc1nc(NCc2ccccc2)c2ncn(C(C)C)c2n1
Data returned: 0

Data request: Suppose we examine the compound Cc1ccc(C(=O)Nc2cccc(C(F)(F)F)c2)cc1Nc1nc(-c2cccnc2)nc2c1cnn2C ; what Growth Rate value has been reported?
Data returned: 0

Data request: Returns the measured Growth Rate for the input compound. Input: Cn1nc(C(=O)NCc2ccc(C(=O)O)cc2)cc1-c1ccc2[nH]ccc2c1
Data returned: 1

Data request: Can you share its Growth Rate? I mean this compound: C=CC(=O)Nc1ccc2[nH]c(=O)n(C3CCN(C(=O)c4ccc(-c5nc6cc[nH]c(=O)c6cc5-c5ccccc5)cc4)CC3)c2c1
Data returned: 1

====

Test system: U2OS
Assay: Multiplex assay against U2OS
Format: toxicity, cell-based
Settings: human, 24 h, 10 µM, compound concentration 10 uM, replicate 2
experimentalEndpoint: Population Healthy Nuclei (%)
Write the answer as a number in %, unit excluded.

compoundStructureString | unitsSymbol | Population Healthy Nuclei (%)
O=C(Nc1ccc(-c2ccnc(Nc3ccc(N4CCOCC4)cc3)n2)cc1)[C@@H]1CCCN1 | % | 64
C=C1/C(=C\C=C2/CCC[C@]3(C)[C@@H]([C@H](C)/C=C/[C@H](C)C(C)C)CC[C@@H]23)C[C@@H](O)C[C@@H]1O | % | 70
COc1ccc(-c2ccc3c(N4CCOCC4)nc(N4C[C@@H](C)O[C@@H](C)C4)nc3n2)cc1CO | % | 53

Data request: Fill in the blank: the reported Population Healthy Nuclei (%) of CCCS(=O)(=O)Nc1ccc(F)c(C(=O)c2c[nH]c3ncc(Cl)cc23)c1F is ____.
Data returned: 91

====

Tested on: U2OS
Experiment: Multiplex assay against U2OS
Assay type: toxicity, cell-based
Details: human, 24 h, 1 µM, compound concentration 1 uM, replicate 1
experimentalEndpoint: Population Mitotic Cells (%)
Write down the numeric answer in % and omit the unit.

compoundStructureString | targetDesc | experimentalEndpoint | testValue
CCOc1cc(C(=O)N2CCC(N3CCN(C)CC3)CC2)ccc1Nc1ncc2c(n1)N(C1CCCC1)c1ccccc1C(=O)N2C | U2OS | Population Mitotic Cells (%) | 50
Cc1ccc(C(=O)Nc2cccc(C(F)(F)F)c2)cc1Nc1nc(-c2cccnc2)nc2c1cnn2C | U2OS | Population Mitotic Cells (%) | 57
CN[C@@H]1C[C@H]2O[C@@](C)([C@@H]1OC)n1c3ccccc3c3c4c(c5c6ccccc6n2c5c31)C(=O)NC4 | U2OS | Population Mitotic Cells (%) | 6

// below: Population Mitotic Cells (%) requested for another compound
Data request: Give U2OS Population Mitotic Cells (%) for COc1cc(N2CCN(C)CC2)ccc1Nc1ncc2c(n1)N(C)c1ccccc1C(=O)N2C
Data returned: 70

====

Let's look at some compounds and their measured Population Tubulin-Different-Phenotype (%).
Test system: Fibroblast
Assay: Multiplex assay against human fibroblast
Type: toxicity, cell-based
Conditions: 48 h, 10 µM, compound concentration 10 uM, replicate 1
Form entry: value (%) — number only.

Take a look at these entries with their results.
compound | testValue
CN1C2CCC1CC(OC(c1ccc(F)cc1)c1ccc(F)cc1)C2.Cl (stereo unspecified) | 78
Cl.O=C(c1ccc(Nc2nccc(-c3cc4ccccc4s3)n2)cc1)N1CCC(N2CCCC2)CC1 | 66

Data request: Which value of Population Tubulin-Different-Phenotype (%) has been reported for O=C1N/C(=N/c2ccccc2F)S/C1=C\c1ccc(C(=O)O)cc1 in the records?
Data returned: 36

Data request: Can you share its Population Tubulin-Different-Phenotype (%)? I mean this compound: CCOc1cc2ncc(C#N)c(Nc3ccc(OCc4ccccn4)c(Cl)c3)c2cc1NC(=O)/C=C/CN(C)C
Data returned: 11

Data request: Report Population Tubulin-Different-Phenotype (%) for Cl.Oc1ccc2c3c1O[C@H]1c4[nH]c5c(c4C[C@@]4(O)[C@@H](C2)N(CC2CC2)CC[C@]314)C[C@@]1(O)[C@H]2Cc3ccc(O)c4c3[C@@]1(CCN2CC1CC1)[C@H]5O4 please.
Data returned: 34

Data request: For the compound O=C(Cc1ccc(-c2ccc(OCCN3CCOCC3)cc2)cn1)NCc1ccccc1 , what Population Tubulin-Different-Phenotype (%) is on record?
Data returned: 29

Data request: Entry CN(C)C(=O)C(CCN1CCC(O)(c2ccc(Cl)cc2)CC1)(c1ccccc1)c1ccccc1.Cl [LOPERAMIDE HYDROCHLORIDE] : reported Population Tubulin-Different-Phenotype (%) = ?
Data returned: 70

Data request: Reported Population Tubulin-Different-Phenotype (%) for O=C(Nc1ccc(-c2ccnc(Nc3ccc(N4CCOCC4)cc3)n2)cc1)[C@@H]1CCCN1 : what is it?
Data returned: 61

Data request: What does the record list as Population Tubulin-Different-Phenotype (%) for CCOC(=O)c1c(C)[nH]c2ccc3c(c12)CN1CCc2cc(OC)ccc2C1O3 (stereo unspecified) ?
Data returned: 84

Data request: Tell me the measured Population Tubulin-Different-Phenotype (%) of Cl.O=c1c2cccn2c2ccccc2n1CCCN1CCC(c2ccc(Cl)cc2)CC1 , please.
Data returned: 78

Data request: Can you share its Population Tubulin-Different-Phenotype (%)? I mean this compound: CCCS(=O)(=O)c1nc(NC2CC2)cc(-c2ccc3c(ccn3C3CC(C)(C)NC(C)(C)C3)c2)n1
Data returned: 61

====

Tested on: U2OS
Assay: Multiplex assay against U2OS
Type: toxicity, cell-based
Settings: human, 12 h, 10 µM, compound concentration 10 uM, replicate 1
experimentalEndpoint: Population Fragmented Nuclei (%)
Field: numeric (%). Do not append units.

Here are 3 molecules together with their reported answers.
molecule | experimentalEndpoint | unitsSymbol | testValue
O=C(Nc1cccnn1)N1CCC(=Cc2cccc(Oc3ccc(C(F)(F)F)cn3)c2)CC1 | Population Fragmented Nuclei (%) | % | 4
CN1CCC(=C2c3ccccc3CC(=O)c3sccc32)CC1.O=C(O)/C=C/C(=O)O [KETOTIFEN FUMARATE] | Population Fragmented Nuclei (%) | % | 15
Cn1nc(C(F)(F)F)cc1-c1cnc(N2CCc3cc(S(=O)(=O)Nc4c(F)cc(Cl)cc4F)cc(N4CCCC4=O)c32)nc1 [TP-020] | Population Fragmented Nuclei (%) | % | 3

Data request: I'd like to know its Population Fragmented Nuclei (%). The molecule in question is CN1C2CCC1CC(OC(c1ccc(F)cc1)c1ccc(F)cc1)C2.Cl (stereo not given)
Data returned: 15

Data request: Suppose we examine the molecule O=C(Nc1ccc(Cl)cc1)Nc1cccc(-c2cccc(N3CCCC3)n2)c1 ; what Population Fragmented Nuclei (%) value has been reported?
Data returned: 10

Data request: If you can, please state the reported Population Fragmented Nuclei (%) value of CCn1c(=O)c(-c2ccc(-c3cncs3)cc2Cl)cc2cnc(Nc3ccc(N4CCN(C)CC4)cc3)nc21 .
Data returned: 40

====

Test system: U2OS
Assay: Multiplex assay against U2OS
Assay type: toxicity, cell-based
Settings: human, 12 h, 1 µM, compound concentration 1 uM, replicate 2
Field: class. Source value: Population Tubulin-Different-Phenotype (%). Ranges: band 1 (below 20%), band 2 (20% to below 30%), band 3 (30% or more)

// below: answered compounds
compound | targetDesc | classAssignment
CN[C@@H]1C[C@H]2O[C@@](C)([C@@H]1OC)n1c3ccccc3c3c4c(c5c6ccccc6n2c5c31)C(=O)NC4 | U2OS | band 3
O=C1NC(=O)C(c2cnc3ccccn23)=C1c1cn2c3c(cc(F)cc13)CN(C(=O)N1CCCCC1)CC2 | U2OS | band 2
O=C(Nc1ccc(Cl)cc1)Nc1cccc(-c2cccc(N3CCCC3)n2)c1 | U2OS | band 1

Data request: Dear colleague, I would appreciate it if you could identify the bin for COc1cc2ncnc(Nc3ccc(F)c(Cl)c3)c2cc1NC(=O)/C=C/CN1CCCCC1 [DACOMITINIB ANHYDROUS] and reply at your convenience.
Data returned: band 3

Data request: Lab note: sort O=C1N/C(=N/c2ccccc2F)S/C1=C\c1ccc(C(=O)O)cc1 into the matching Population Tubulin-Different-Phenotype (%) band.
Data returned: band 2

Data request: Which band does Cc1cc(C)c(S(=O)(=O)N(Cc2ccc(-c3cccc(S(C)(=O)=O)c3)cc2)Cc2ccc(C(F)(F)F)o2)c(C)c1 fall in?
Data returned: band 2

Data request: Which class holds Cl.Oc1ccc2c3c1O[C@H]1c4[nH]c5c(c4C[C@@]4(O)[C@@H](C2)N(CC2CC2)CC[C@]314)C[C@@]1(O)[C@H]2Cc3ccc(O)c4c3[C@@]1(CCN2CC1CC1)[C@H]5O4 ?
Data returned: band 1

Data request: Category lookup for the compound CN1CCN(C(=O)C(C)(C)c2ccc(C(=O)Nc3cn4cc(-c5cc(C(C)(C)C)cc(C(C)(C)C)c5)ccc4n3)cc2)CC1
Data returned: band 1

Data request: Note: place this compound into its band. Item: CCc1cccc(CC)c1NC(=O)c1nn(C)c2c1CCc1cnc(Nc3ccc(C(=O)NC4CCN(C)CC4)cc3OC(F)(F)F)nc1-2
Data returned: band 1
